Source listed as the nanobody polyreactivity screen of Harvey et al. (2022).

# PROTOCOL: yeast display, Sf9 membrane polyspecificity reagent, FACS + sequencing; frameworks hold sequencing errors

[
  {
    "SEQUENCE CHAIN": "QVQLVESGGGLVQAGASLRLSCAASGFNFDTNTIGWYRQAPGKERELVAVITRRGGRTYDADSVKGRFTISRDNAKNRVYLQMNSLKPVDTAVYYFNSVSYGQYGWGEGTQVTVSS",
    "polyreactivity (PSR sort gate)": "high polyreactivity"
  },
  {
    "SEQUENCE CHAIN": "QDQLVESGGGLVQAGGSLRISCAASGGTFKSYAMGWYREAPGKERELVATITRDGRTNYADSVKGRFTISRDNAKNTVYLQMNSLKPEDTAVYYCNADYWSVWIALEFTVDYWGQGTQVTVSS",
    "polyreactivity (PSR sort gate)": "low polyreactivity"
  },
  {
    "SEQUENCE CHAIN": "QDQLVESGGGLVQARGTLRLSCAASGRTFYQNAMGWYRHAPGKEREFVGAITGGTGSTHYADSVKGRFTISRDNAKNTVFLQMNSLKPEDTAVYYCATRYLLGFSRYDYCGQGTQVTVSS",
    "polyreactivity (PSR sort gate)": "low polyreactivity"
  },
  {
    "SEQUENCE CHAIN": "QVQLVESGGGLVQAGGSLRLSCAASRSIFPYNVMGWYRQAPGTEMELVAAISTRGGRTYYADSVKGRFTISRDYAKNTVYLQMNSLKPEDTAVYYCATAGGPYSDSGYYWGHGTQVTVSS",
    "polyreactivity (PSR sort gate)": "high polyreactivity"
  },
  {
    "SEQUENCE CHAIN": "QVQLVESGGGLVHAGGSLSLSCAASGSTFKDYAMGWYRQAPGKERELVAAISKGATRTYYADSVKGRFTISRDNAKITVYLQINSLKPEDTAVYYCAADRLKFRGEYDYWGQGSQVTVSS",
    "polyreactivity (PSR sort gate)": "high polyreactivity"
  },
  {
    "SEQUENCE CHAIN": "QVQLVESGGGLVQAGGSLRLSCAASGRTFYRNAMGWYRQAPGKERELVAAITSSGASTYYADSVKGRFTISRDNAKNTVYLQMNSLKPEDTAVYYCAAKYVYSVGNYRYDYWGQGTQVTVSS",
    "polyreactivity (PSR sort gate)": "low polyreactivity"
  },
  {
    "SEQUENCE CHAIN": "QVQLVESGGGLVQAGGSLRLSSAASGSIFVNYVMGWYRQAPGKERELVADISSGGSTYYADSVKGRFTISRDNAKNTVYLQMNSLKPEDTAVYYCNAVYPYTYDYWGQGTQVTVSS",
    "polyreactivity (PSR sort gate)": "low polyreactivity"
  },
  {
    "SEQUENCE CHAIN": "QVQLVESRGGLVQAGGSLRLSCAASGGTFSLNAMGWYRQAPGKERELVAANSKRSSTTYYADSVKGRFTISRDNAKNTVYLQMNSLKPEDTAVYYCAARVLRSRKPGPGYDYWGQGTQVTVSS",
    "polyreactivity (PSR sort gate)": "high polyreactivity"
  },
  {
    "SEQUENCE CHAIN": "QVQLVESGGGLVQAGGSLRLSCAASGRIFDPHAMGWYRPAPGKERELVASSTRRGGSTYYADSVKGRFTSSRDIAKNNVYLQMNSLKPEDTSVYYCARPNLLSGDYWGQGTQVTVSS",
    "polyreactivity (PSR sort gate)": "high polyreactivity"
  },
  {
    "SEQUENCE CHAIN": "QVQLVESGGGLVQAGGSLRLRCAASGRTFAVYAMGWYRQAPGKERELVAAITLGASRSYYADSVKGRFTISRDNAKNTVYLHMNSLKPEDTAVYYCNAVGRRNVVSSLNDYWGQGTQVTVSS",
    "polyreactivity (PSR sort gate)": "low polyreactivity"
  },
  {
    "SEQUENCE CHAIN": "QVQLVESGGGLVQAGGSLRLSCAASGRIFAVNAMGWYRQAPGNERELVAAITRGGSTNYADSVKGRFTISRDNAKNTVYLQMNSLKPEDTAVYYCAARVYTSPPVRSAPTGYYYWGQGTQVTVSS",
    "polyreactivity (PSR sort gate)": "high polyreactivity"
  },
  {
    "SEQUENCE CHAIN": "QVQHVESGGGLGQAGGSLRLSCAASGRTFDGNVKGWYIQAPGKERELVAAMTASGARTYYADSVKRRFTISRDNAKNTVYLQMNSLKPEDTAVYYCAAVCRRVSAWYYYWGQGTQVTVSS",
    "polyreactivity (PSR sort gate)": "high polyreactivity"
  },
  {
    "SEQUENCE CHAIN": "QVQLVESGGGLVQAGGSLRLSCAASGYIFDIYAMGWYRQAPGKEMQLVAVITRSGGGTYYADSVKGRFTISRDNAKNTVYLQMNSLKPEDTAVYYCAAESFVYGGSDYDYWGQGTQVTVSS",
    "polyreactivity (PSR sort gate)": "low polyreactivity"
  }
]

---

# PROTOCOL: yeast display, Sf9 membrane polyspecificity reagent, FACS + sequencing; frameworks hold sequencing errors
MEASUREMENT LABEL: polyreactivity (PSR sort gate)

[
  {
    "SEQUENCE CHAIN": "QVQLVESGGGLVQAGGSLRLSCAASGRIFARNAMGWYRPEPGKERELVAGITWSTASTYYADSVKGRFTISLDNAKNTVYLQMNSLKPEDTAVYYCAADSYYYYDYWYVYLYDYWGQGTQVTVSS",
    "MEASUREMENT LABEL": "polyreactivity (PSR sort gate)",
    "ENDPOINT VALUE": "high polyreactivity"
  },
  {
    "SEQUENCE CHAIN": "QVHLVESGGGLVQAGGSLRLSCAASGSTFLGYAMGWYRQAPGKERELVAAISWSGGTTYYADSVKGRFTISRDNAKNTVYFQMISQKPEDTAVYYCNVYTRGRYEYWGQGTQVTVSS",
    "MEASUREMENT LABEL": "polyreactivity (PSR sort gate)",
    "ENDPOINT VALUE": "low polyreactivity"
  },
  {
    "SEQUENCE CHAIN": "QVKLLDSGGGLVQAGGSLRLSCAASGRNFYYYAMGWYRQAPGNERELVAAISSCGSTYADSVKGRFTISRDNAKTTVYLQMNSLKPEDTAVYYCAAYLSRLGPSGYYYWGQGTQVTVSS",
    "MEASUREMENT LABEL": "polyreactivity (PSR sort gate)",
    "ENDPOINT VALUE": "high polyreactivity"
  },
  {
    "SEQUENCE CHAIN": "QVQLVESGGCLVQAGGSLRLSCAASGRIFYIYAMGWYRQAPGKERELVAAITNGGSTNYADSVKGRFTISRDNAKNTVYLQMNSLKPEDTAVYYCAASVGTYAYGRTVYRYDYWGQGTQVTVSS",
    "MEASUREMENT LABEL": "polyreactivity (PSR sort gate)",
    "ENDPOINT VALUE": "low polyreactivity"
  }
]

---

# PROTOCOL: yeast display, Sf9 membrane polyspecificity reagent, FACS + sequencing; frameworks hold sequencing errors

[
  {
    "SEQUENCE CHAIN": "QVQLVESGGGLVQAGGSLRLSCAASGSTFYAYDMGWYRQAPGKEREWVAAISRSGGNTYYADSVKGRFTISRDYAKNTVYLQMNSQKPEDTAVYYCNARSSVYGHRKGSARIPRYDYWGQGTQVTVSS",
    "polyreactivity (PSR sort gate)": "high polyreactivity"
  },
  {
    "SEQUENCE CHAIN": "QVQLVESGGGLVQAGGSLRLSCAASGITFVQNVMGWYRQAPGKEREFVAGINNSGGSTYYADSVKGRFTISRDNAKNTVYLQMNSLKPEDTAVYYCAAVYDRYTYAFVYRYRRMYYWGQGTQVTVSS",
    "polyreactivity (PSR sort gate)": "low polyreactivity"
  },
  {
    "SEQUENCE CHAIN": "QVQLVESGGGLVQAGGSLRLSCAASGFIFNDYAMGWYRQAPGKERELVAAISRSGGSTYYADSVKGRFTISRDNAKNTVYLQMNSLKAEDTAVYYCAADGLSGYRYYYWGQGTQVTVSS",
    "polyreactivity (PSR sort gate)": "high polyreactivity"
  },
  {
    "SEQUENCE CHAIN": "QVQLVESGGCLVQAGGSLRLSCAASGPTFSKANAMGWYRQAPGKERELVAAITDGGSTYADSVKGRFTISRDNAKNTVYLQMYSMKPEDTAVYYCAKDTEVFYDSSYDYWGHGTQVTVSS",
    "polyreactivity (PSR sort gate)": "low polyreactivity"
  },
  {
    "SEQUENCE CHAIN": "QVQLVESGGGLVQAGGSLRLSCSASGYISHYAMGWYRQAPGKERELVAAISRRGGSTYYADSVKGRFTISRDNAKNTVYLQMNSLKPEDTAVYYCNKATSYFTVRGYDYCGQGTQVTVSS",
    "polyreactivity (PSR sort gate)": "high polyreactivity"
  },
  {
    "SEQUENCE CHAIN": "QVQHVESGGGLDQAGGSLRLSCAASGRIYCTNAMGWYRQAPGKESELVADITSGGSTNYADSVKGRFSISRDNAKNTVYLQMTSLKPEDTAVYYCAADVIGDLRWYRDEYWGQGTQVTVAS",
    "polyreactivity (PSR sort gate)": "low polyreactivity"
  },
  {
    "SEQUENCE CHAIN": "QVQLVESGGGLVQAGGSLRLSTAASGIIFWYNAMGWYRQAPGKERELVAAISTGGSTNYADSVKGRFTISRDNAKNTVYLQMNSLKPEDTAVYYCAADWHRSYGAYDYWGQGTQVNVSS",
    "polyreactivity (PSR sort gate)": "low polyreactivity"
  },
  {
    "SEQUENCE CHAIN": "QGQLEESGGGLVQAGGSLRLTCAASGRNLRTYAMGWYRQATGKERELVAAISRGGSTNYADSVKGRFTISRDNAKNTVYLQMHSLKPEDTAVYYCAAGYVRYYSDYVSYVYWGQGTQVTVSS",
    "polyreactivity (PSR sort gate)": "low polyreactivity"
  },
  {
    "SEQUENCE CHAIN": "QVQLVESGGGLVQAGCSLRLSCAASGSTFGYYTMGWYRQAPGKERELVAAITRSGGSTYYADSVKGRFTISRDNAKNSVYLQMTSLKPEDTAVYYCAADDYWTTFGYWGLGTQVTVSS",
    "polyreactivity (PSR sort gate)": "low polyreactivity"
  },
  {
    "SEQUENCE CHAIN": "QVQLVESGGGLVQAGGSLRLSCAASGSIFRYYTMGWYRQAPGKERELVAAISWSGGSTYYADSVKGRFTISRDNAKNTVYLQMNSLKPEDTPVYYCNAVSFAYNPYSGTYDYRGQGTQVTVSS",
    "polyreactivity (PSR sort gate)": "high polyreactivity"
  },
  {
    "SEQUENCE CHAIN": "QVQLVESGGGLVQAGGSLLLSCAASGRTFILNAMGWYRQAPGKERELVAAISWSGGSTYYADSVKGRFTISRDKSKNTVYLQMNSLKPEDPAVYYCAAETYAYLFHTYDYGGQGTQVTVSS",
    "polyreactivity (PSR sort gate)": "low polyreactivity"
  }
]
